Source listed as patent US9604923B2.

Target: Stat1:1 (Mus musculus)
Construct: endogenous in cells
Sequence (P42225 2-749 limits assumed): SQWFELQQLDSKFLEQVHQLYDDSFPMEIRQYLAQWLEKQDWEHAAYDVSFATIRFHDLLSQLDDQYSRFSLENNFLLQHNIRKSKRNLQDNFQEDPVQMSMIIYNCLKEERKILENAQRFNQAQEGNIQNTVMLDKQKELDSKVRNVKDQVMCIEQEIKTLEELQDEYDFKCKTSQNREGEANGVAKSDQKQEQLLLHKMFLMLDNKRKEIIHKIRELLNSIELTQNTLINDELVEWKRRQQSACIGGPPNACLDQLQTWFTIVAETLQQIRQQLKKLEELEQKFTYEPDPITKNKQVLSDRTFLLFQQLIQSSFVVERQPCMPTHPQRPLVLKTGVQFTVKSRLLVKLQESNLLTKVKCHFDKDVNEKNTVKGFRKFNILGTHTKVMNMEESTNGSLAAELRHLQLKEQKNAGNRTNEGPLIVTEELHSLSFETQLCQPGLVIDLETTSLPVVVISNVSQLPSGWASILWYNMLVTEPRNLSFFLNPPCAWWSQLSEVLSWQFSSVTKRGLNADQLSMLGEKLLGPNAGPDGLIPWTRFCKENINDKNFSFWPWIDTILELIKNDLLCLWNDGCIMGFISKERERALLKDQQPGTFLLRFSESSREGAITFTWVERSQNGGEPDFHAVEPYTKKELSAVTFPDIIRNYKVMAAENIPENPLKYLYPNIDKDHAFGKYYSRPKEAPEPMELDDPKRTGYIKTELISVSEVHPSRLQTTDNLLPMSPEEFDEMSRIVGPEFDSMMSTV
Experiment: STATs DNA-binding activity in vitro, EMSA
Details: Table 4; read-out: IC50 values for the inhibition of STATs DNA-binding activity in vitro, Stat1:1
READOUT KIND: IC50 (µM)

COMPOUND | TEST TARGET | ENDPOINT UNIT | RESULT
C=CC1=C(C)/C(=C/c2[nH]c(Cc3[nH]c(/C=C4\NC(=O)C(C)=C4C=C)c(C)c3CCC(=O)O)c(CCC(=O)O)c2C)NC1=O [NSC 26685] | Stat1:1 (Mus musculus) | µM | 95

P. Cc1cc(N=Nc2ccc(-c3ccc(N=Nc4ccc(O)c(C(=O)O)c4)cc3)cc2)c(N)c(N=Nc2cccc(OCC(=O)O)c2)c1N [NSC 75914]
Q. O=C1c2ccccc2-c2ccc(N(Cc3ccc([N+](=O)[O-])cc3)Cc3ccc([N+](=O)[O-])cc3)cc21 [NSC 24056]
Smaller IC50 value, P vs Q ? // return label of chosen record
P
